# STUDY TARGET: Sushi domains (SD1/2) protein of GABAB1a (GB1a)
# Sequence (Q9Z0U4 29-158): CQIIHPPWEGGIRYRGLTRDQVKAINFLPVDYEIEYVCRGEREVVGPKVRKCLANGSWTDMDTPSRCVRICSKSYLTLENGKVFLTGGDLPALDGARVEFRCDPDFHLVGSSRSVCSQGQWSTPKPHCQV
# ASSAY NOTES: FP competition vs TAMRA AJAP-1probe
Starred links: 1 amine or outer side, 2 acyl side, 3 side chain; linkers in the order of their positions; H or OH if unused. Non-standard residues stand in square brackets, D forms with d. Tyr(Bzl) = Obtyr, O-benzyl-L-tyrosine, O=C([C@H](Cc1ccc(OCc2ccccc2)cc1)N[*:1])[*:2]; 2Nal = N[C@@H](Cc1ccc2ccccc2c1)C(=O)O; Cya = N[C@@H](CS(=O)(=O)O)C(=O)O
log10 Ki for assorted binders
MEASURED PROPERTY: log10 Ki (log10 of the value in nM)

{"columns": ["BINDER", "log10 Ki"],
 "data": [
  ["Ac-EDDSDVWW[Tyr(Bzl)]GADTD-NH2 (SMILES CC(=O)N[C@@H](CCC(=O)O)C(=O)N[C@@H](CC(=O)O)C(=O)N[C@@H](CC(=O)O)C(=O)N[C@@H](CO)C(=O)N[C@@H](CC(=O)O)C(=O)N[C@H](C(=O)N[C@@H](Cc1c[nH]c2ccccc12)C(=O)N[C@@H](Cc1c[nH]c2ccccc12)C(=O)N[C@@H](Cc1ccc(OCc2ccccc2)cc1)C(=O)NCC(=O)N[C@@H](C)C(=O)N[C@@H](CC(=O)O)C(=O)N[C@H](C(=O)N[C@@H](CC(=O)O)C(N)=O)[C@@H](C)O)C(C)C) [EDDSDVWW(Obtyr)GADTD]", 1.94],
  ["Ac-PSAIVWGPTVSRED-NH2", 2.96],
  ["Ac-AIVWGPTVSRED-NH2 (also: asterisk not explained) […*]", 2.89],
  ["Ac-ETEFI[Cya]WGPTGDED-NH2 (SMILES CC[C@H](C)[C@H](NC(=O)[C@H](Cc1ccccc1)NC(=O)[C@H](CCC(=O)O)NC(=O)[C@@H](NC(=O)[C@H](CCC(=O)O)NC(C)=O)[C@@H](C)O)C(=O)N[C@@H](CS(=O)(=O)O)C(=O)N[C@@H](Cc1c[nH]c2ccccc12)C(=O)NCC(=O)N1CCC[C@H]1C(=O)N[C@H](C(=O)NCC(=O)N[C@@H](CC(=O)O)C(=O)N[C@@H](CCC(=O)O)C(=O)N[C@@H](CC(=O)O)C(N)=O)[C@@H](C)O) [ETEFI(Cya)WGPTGDED]", 1.08],
  ["Ac-ETEFIHWGPTGDED-NH2", 1.38],
  ["Ac-RRRRREDDDWIDWYDSDDD-NH2", 1.60],
  ["Ac-ETEFIAWGPTGDFD-NH2", 1.61],
  ["Ac-EDDDWIDWYDSDDDGGGGSRRRRRRRR-NH2 [16-FL-R8]", 2.07],
  ["Ac-RRRRRRRRGGGGSEDDDWIDWGPTSDDD-NH2 [R8-FL-17]", 2.15],
  ["Ac-RRREDDDWIDWYDSDDD-NH2 [R3-16]", 0.81],
  ["Ac-[2Nal]EDSDDYDDIDDDW-NH2 (SMILES CC[C@H](C)[C@H](NC(=O)[C@H](CC(=O)O)NC(=O)[C@H](CC(=O)O)NC(=O)[C@H](Cc1ccc(O)cc1)NC(=O)[C@H](CC(=O)O)NC(=O)[C@H](CC(=O)O)NC(=O)[C@H](CO)NC(=O)[C@H](CC(=O)O)NC(=O)[C@H](CCC(=O)O)NC(=O)[C@H](Cc1ccc2ccccc2c1)NC(C)=O)C(=O)N[C@@H](CC(=O)O)C(=O)N[C@@H](CC(=O)O)C(=O)N[C@@H](CC(=O)O)C(=O)N[C@@H](Cc1c[nH]c2ccccc12)C(N)=O) [Scr-20]", 4.49],
  ["Ac-EDDS[2Nal]VWWGGADTD-NH2 (SMILES CC(=O)N[C@@H](CCC(=O)O)C(=O)N[C@@H](CC(=O)O)C(=O)N[C@@H](CC(=O)O)C(=O)N[C@@H](CO)C(=O)N[C@@H](Cc1ccc2ccccc2c1)C(=O)N[C@H](C(=O)N[C@@H](Cc1c[nH]c2ccccc12)C(=O)N[C@@H](Cc1c[nH]c2ccccc12)C(=O)NCC(=O)NCC(=O)N[C@@H](C)C(=O)N[C@@H](CC(=O)O)C(=O)N[C@H](C(=O)N[C@@H](CC(=O)O)C(N)=O)[C@@H](C)O)C(C)C) [EDDS(2Nala)…]", 1.63],
  ["Ac-RRRRRRREDDDWIDWYDSDDD-NH2", 1.95],
  ["Ac-PHAIVWGPTVSRED-NH2", 3.18],
  ["Ac-PWVIVWGPTVSRED-NH2", 2.48],
  ["Ac-ETEFIAWGPTGDYD-NH2", 1.60]
]}
